- TESTED_TARGET: T1, human EphA2 (human, UniProt P29317 24-534, limits assumed)
- T1 construct: Target of the BIAcore analysis as named in the text
- T1 sequence (P29317 24-534 limits assumed): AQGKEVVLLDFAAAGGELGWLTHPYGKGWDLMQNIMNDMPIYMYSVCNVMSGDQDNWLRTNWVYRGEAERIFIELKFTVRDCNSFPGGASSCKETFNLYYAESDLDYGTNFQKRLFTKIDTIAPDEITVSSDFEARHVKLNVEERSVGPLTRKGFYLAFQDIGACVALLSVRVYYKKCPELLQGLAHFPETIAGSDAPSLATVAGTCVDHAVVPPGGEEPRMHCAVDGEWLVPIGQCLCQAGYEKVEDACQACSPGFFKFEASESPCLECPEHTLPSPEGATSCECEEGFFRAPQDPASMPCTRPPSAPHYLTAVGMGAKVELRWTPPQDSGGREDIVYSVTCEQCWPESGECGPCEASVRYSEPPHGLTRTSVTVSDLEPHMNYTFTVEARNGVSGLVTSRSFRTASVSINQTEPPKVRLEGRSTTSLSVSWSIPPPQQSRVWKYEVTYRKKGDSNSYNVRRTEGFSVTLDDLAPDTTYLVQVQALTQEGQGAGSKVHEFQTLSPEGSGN
- ASSAY_NAME: BIAcore; format not stated
MEASUREMENT_KIND: Kd (nM)

[[record]]
binder = "Mouse version of EP101 (mouse IgG) (antibody, V domains shown, Mouse IgG; also called anti-human EphA2 monoclonal antibody EP101; parental murine antibody) VH: EVKLVESGGGLVQPGGSLSLSCAASGFTFTDYSMNWVRQPPGKALEWLGFIRNKANDYTTEYSASVKGRFTISRDNSQSILYLQMNALRAEDSATYYCVRYPRYHAMDSWGQGTSVTVSS VL: DIVLTQSPATLSVTPGDSVNLSCRASQSISNNLHWYQQKSHESPRLLIKYVFQSISGIPSRFSGSGSGTDFTLSINSVETEDFGMYFCQQSNSWPLTFGAGTKLELK"
measurement_kind = "Kd"
units_label = "nM"
numeric_readout = 0.3

